Dear all, I have gathered published Ki values for Adenosine receptor A3 (Homo sapiens, UniProt P0DMS8); the list follows.
Field format: number, assumed nM, no unit text.

Solved entries:
>>> print(df.to_string())
                            compound_string  test_value
0  NCCCC(=O)Nc1nc2nn(CCc3ccccc3)cc2c2nc(-c3ccco3)nn12          65
1          Oc1nc2ccccc2c2cc(-c3ccccc3F)nn12         140
2  O=C(Cc1ccccc1)Nc1nc(-c2ccccc2)nc2cn(-c3ccccc3)nc12          18
3  Cc1ccc(-c2ncc3[nH]c(=O)n(Cc4ccccc4)c3n2)cc1         316
4  CCCn1c(=O)c2nc(-c3cnn(Cc4noc(-c5cccc(Cl)c5)n4)c3)[nH]c2n(CCC)c1=O        3000
5  CONc1nc(Cl)nc2c1ncn2[C@@H]1O[C@H](CCl)[C@@H](O)[C@H]1O          26

Prompt line: Write down measured Ki (Adenosine receptor A3 (Homo sapiens, UniProt P0DMS8)) for this molecule. NCC(=O)Nc1nc2nn(CCc3ccccc3)cc2c2nc(-c3ccco3)nn12
Response line: 163

Prompt line: Recall the reported Ki of CCOC(=O)[C@@H](Cc1c[nH]c2ccccc12)Nc1nc2nn(C)cc2c2nc(-c3ccco3)nn12 on Adenosine receptor A3 (Homo sapiens, UniProt P0DMS8) and write it down.
Response line: 59.7

Prompt line: Param request: Ki | system Adenosine receptor A3 (Homo sapiens, UniProt P0DMS8) | item O=C(O)c1cnc(NCc2ccc(F)cc2)n2nc(-c3ccco3)nc12
Response line: 14000

Prompt line: System Adenosine receptor A3 (Homo sapiens, UniProt P0DMS8). Read-out Ki. Item Cn1cc2c(n1)[nH]c(=O)n1nc(-c3ccco3)nc21 . Report value.
Response line: 5280

* * *

Target chain: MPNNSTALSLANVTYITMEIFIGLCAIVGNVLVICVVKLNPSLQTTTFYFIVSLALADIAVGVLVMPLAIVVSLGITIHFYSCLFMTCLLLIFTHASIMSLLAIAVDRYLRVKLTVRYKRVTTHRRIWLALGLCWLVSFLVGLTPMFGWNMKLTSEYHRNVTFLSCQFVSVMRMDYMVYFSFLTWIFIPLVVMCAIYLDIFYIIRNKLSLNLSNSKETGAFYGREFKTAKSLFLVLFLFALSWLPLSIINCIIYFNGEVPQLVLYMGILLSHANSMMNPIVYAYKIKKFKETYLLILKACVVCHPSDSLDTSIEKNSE
Below are Ki measurements against the protein given by its sequence drawn from the literature.
Just the number in nM, nothing appended.

>>> print(df.to_string())
                            compound_string                    measured_target  assay_readout  test_value
0  Cc1ccc(CNc2ncc(C(=O)O)c3nc(-c4ccco4)nn23)cc1  the protein given by its sequence             Ki         751
1  Cc1ccc(C(=O)Nc2nc(-c3ccccc3)c(-c3nc(N)c4c(C)c(C)sc4n3)s2)cc1  the protein given by its sequence             Ki        1380
2  O=C(Nc1nc(-c2ccccc2)c(C(=O)c2ccccn2)s1)c1ccco1  the protein given by its sequence             Ki         951

Attention now shifts to the item below.
Prompt line: Indicate its recorded Ki; the molecule in question is Cc1ccc(C(=O)Nc2nc(Cl)c3cn(CCc4ccccc4)nc3n2)cc1
Response line: 1500

* * *

Before we begin, note that these pKi values for the protein given by its sequence originate from several publications.
Sequence of the target: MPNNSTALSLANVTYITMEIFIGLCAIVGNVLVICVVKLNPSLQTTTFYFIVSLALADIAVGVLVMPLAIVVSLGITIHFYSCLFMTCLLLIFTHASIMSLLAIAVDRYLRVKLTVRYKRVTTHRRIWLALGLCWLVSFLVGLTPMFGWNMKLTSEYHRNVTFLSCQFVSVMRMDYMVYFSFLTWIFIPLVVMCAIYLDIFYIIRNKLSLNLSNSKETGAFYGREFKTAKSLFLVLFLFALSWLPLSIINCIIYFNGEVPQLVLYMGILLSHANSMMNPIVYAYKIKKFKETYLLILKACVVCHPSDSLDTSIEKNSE
pKi: −log10 of the molar value.
Threshold check on pKi: at or above 6 gives Criterion met, strictly below gives Criterion not met.

Prompt line: pKi >= 6 for COc1ccc(NC(=O)Nc2nc(-c3ccccc3)nc3nn(CCc4ccccc4)cc23)cc1 ?
Response line: Criterion not met

Prompt line: Has CCc1nc2c3[nH]c(C)nc3c3nc(C)[nH]c3c2[nH]1 a recorded pKi greater than or equal to 6?
Response line: Criterion met

Prompt line: Determine whether measured pKi meets or exceeds 6 for COc1ccc(NC(=O)Nc2nc(-c3ccccn3)cs2)cc1
Response line: Criterion not met

Prompt line: # bool: pKi of COc1ccc(Cl)cc1CNc1ncnc2c1ncn2[C@@H]1O[C@H](CO)[C@@H](CN)[C@H]1O >= 6
Response line: Criterion not met

Prompt line: Given the entry COc1ccc(-n2cc3nc(-c4ccccc4)nc(NC(C)=O)c3n2)cc1 , answer whether its pKi meets or surpasses 6.
Response line: Criterion met

Prompt line: Check the entry Nc1nc(OCCCCc2ccccc2)nc2c1ncn2[C@@H]1O[C@H](CO)[C@@H](O)[C@H]1O : does pKi equal or exceed 6?
Response line: Criterion met

Prompt line: Check the entry CCOC(=O)c1cnc(NC(=O)Nc2ccccc2)n2nc(-c3ccco3)nc12 : does pKi equal or exceed 6?
Response line: Criterion met

Prompt line: Determine whether measured pKi meets or exceeds 6 for CCCn1c(=O)c2c(nc3ccccn32)n(Cc2cccc(C)c2)c1=O
Response line: Criterion met

Prompt line: // inclusive: pKi at least 6? input: Cn1cc2c(nc(NC(c3ccccc3)c3ccccc3)n3nc(-c4ccco4)nc23)n1
Response line: Criterion met

* * *

Below are pKi values for Adenosine receptor A3 (Homo sapiens) collected from several publications.
measured-target: Adenosine receptor A3 (Homo sapiens)
Sequence (P0DMS8 whole entry): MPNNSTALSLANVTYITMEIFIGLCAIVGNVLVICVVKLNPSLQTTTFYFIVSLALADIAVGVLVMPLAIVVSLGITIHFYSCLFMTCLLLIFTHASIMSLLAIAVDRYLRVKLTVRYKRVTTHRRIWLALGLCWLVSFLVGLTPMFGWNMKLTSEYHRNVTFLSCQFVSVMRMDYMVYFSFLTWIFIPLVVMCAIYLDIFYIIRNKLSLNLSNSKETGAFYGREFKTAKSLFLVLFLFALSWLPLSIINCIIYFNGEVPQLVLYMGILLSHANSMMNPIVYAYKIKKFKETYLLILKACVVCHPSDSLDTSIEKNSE
pKi: −log10 of the molar value.

Examples from the recorded data:
>>> print(df.to_string())
                            compound_string  test_value
0                 C=CCCn1c(Br)nc2c(N)ncnc21      < 4.00
1  CCOc1cccc2cc(-c3ccc([N+](=O)[O-])cc3)c(=O)oc12      < 4.00

Here is the next item to consider.
Prompt line: // Input: Cn1c(=O)c2c(nc3n2CCCN3CCOc2ccc(Cl)cc2)n(C)c1=O . Output its pKi only.
Response line: < 6.00

* * *

Literature Ki values, system: the protein given by its sequence.
Target sequence: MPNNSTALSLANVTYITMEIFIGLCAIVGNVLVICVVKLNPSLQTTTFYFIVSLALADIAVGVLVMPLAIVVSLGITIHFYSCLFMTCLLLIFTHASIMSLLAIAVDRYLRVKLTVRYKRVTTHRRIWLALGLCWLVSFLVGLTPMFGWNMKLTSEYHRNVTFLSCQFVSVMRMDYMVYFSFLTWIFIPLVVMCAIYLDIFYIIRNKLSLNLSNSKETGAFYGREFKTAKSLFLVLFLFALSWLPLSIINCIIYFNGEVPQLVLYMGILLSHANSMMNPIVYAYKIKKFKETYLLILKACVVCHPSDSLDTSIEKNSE

In [3]: df
Out[3]:
                            compound_string  assay_readout  test_value
0                      Oc1c2nnnc-2nc2sccn12             Ki      > 1 µM
1  CCCn1c(=O)c2c(nc(-c3ccc(N)cc3)n2C)n(CCC)c1=O             Ki      > 1 µM

Attention now turns to another entry.
Prompt line: For COc1ccc(CC(=O)Nc2nc3nn(C)c(SC)c3c3nc(-c4ccco4)nn23)cc1 , write its Ki.
Response line: > 1 µM

* * *

Let's look at some Ki data for Adenosine receptor A3 (Homo sapiens, UniProt P0DMS8) that I collected from the literature.
Record the value in nM, omitting the unit from your answer.

Sample answers from the record:
                            compound_string  test_value
0  CCOc1ccc(-c2c(C#N)c(N)nc(SCc3ncc[nH]3)c2C#N)cc1          85
1  Nc1nc([N+](=O)[O-])nc2c1ncn2[C@@H]1O[C@H](CO)[C@@H](O)[C@H]1O         202
2  CNC(=O)[C@@]12C[C@@H]1[C@@H](n1cnc3c(NCC4CCC4)nc(-n4cc(-c5ccc(Cl)s5)nn4)nc31)[C@H](O)[C@@H]2O          21
3  c1coc(-c2nc3nc(NC4CCCCC4)nc(NC4CCCCC4)n3n2)c1         129
4  O=[N+]([O-])c1cc(NC2CCCC2)c2ncn([C@@H]3O[C@H](CO)[C@@H](O)[C@H]3O)c2n1         340
5  Cn1c(=O)c2c(nc3n2CCN(Cc2csc(-c4ccc(C(F)(F)F)cc4)n2)C3)n(C)c1=O        7490

Prompt line: Send back Adenosine receptor A3 (Homo sapiens, UniProt P0DMS8) Ki of Cn1c(=O)n(Cc2ccccc2)c(=O)c2[nH]cnc21 only.
Response line: 4440

Prompt line: Please respond with reported Ki (system Adenosine receptor A3 (Homo sapiens, UniProt P0DMS8)) for Cn1cc2c(nc(NC(=O)NC3CCN(C(=O)NC4CCCC4)CC3)n3nc(-c4ccco4)nc23)n1 .
Response line: 9.3

Prompt line: Look up Adenosine receptor A3 (Homo sapiens, UniProt P0DMS8) data: Ki of CNC(=O)[C@H]1O[C@@H](n2cnc3c(NC)ncnc32)[C@H](O)[C@@H]1O , then report it.
Response line: 4.8

Prompt line: // fetch Ki for O=C(COc1ccc(Cl)cc1)Nc1nc2nn(CCc3ccccc3)cc2c2nc(-c3ccco3)nn12 ; system: Adenosine receptor A3 (Homo sapiens, UniProt P0DMS8)
Response line: 3250

Prompt line: Please indicate recorded Ki of c1ccc2cc(Nc3nc(NC4CCCCC4)c4[nH]cnc4n3)ccc2c1 measured with Adenosine receptor A3 (Homo sapiens, UniProt P0DMS8).
Response line: 2420

Prompt line: Please indicate recorded Ki of CCOc1cccc2cc(-c3cc(OC)c(OC)c(OC)c3)c(=O)oc12 measured with Adenosine receptor A3 (Homo sapiens, UniProt P0DMS8).
Response line: 9050
